Test Description: Acute toxicity in mouse administered as single po dose
Assay type: organism-based
Experimental Parameters: in vivo
Recorded measurements of LD50, one per entry
Please give a number only; it is taken to be in mg/kg.

[[record]]
compound = "Brc1cncnc1-c1cccs1"
meas_value = 315

[[record]]
compound = "C(=C\\c1cncnc1-c1ccc(-c2cccs2)s1)/c1ccc(-c2ccccc2)cc1"
meas_value = 78

[[record]]
compound = "Brc1cncnc1-c1ccco1"
meas_value = 405


So for NNC(=O)c1ccncc1 [ISONIAZID] , the logged LD50 turned out to be 133

----------
Recorded measurements of log10(MIC), one per entry
Test system: Mycobacterium tuberculosis
Test Description: Antimycobacterial activity against Mycobacterium tuberculosis H37Rv after 10 days by microbroth dilution method
Assay type: functional
Experimental Parameters: 240 h
Use the decimal logarithm of MIC (µg/mL).

[[record]]
compound = "Brc1cncnc1-c1cccs1"
meas_value = -0.15

[[record]]
compound = "C(=C\\c1cncnc1-c1ccc(-c2cccs2)s1)/c1ccc(-c2ccccc2)cc1"
meas_value = 0.18

[[record]]
compound = "C(=C\\c1cncnc1-c1cccs1)/c1ccccc1"
meas_value = 1.10

[[record]]
compound = "C(=C\\c1cncnc1-c1ccco1)/c1ccccc1"
meas_value = 0.80

[[record]]
compound = "c1csc(-c2ccncn2)c1"
meas_value = 1.10

[[record]]
compound = "c1ccc(-c2ccc(-c3ccncn3)s2)cc1"
meas_value = 1.10

[[record]]
compound = "Brc1cncnc1-c1ccco1"
meas_value = 0.18

[[record]]
compound = "C(=C\\c1cncnc1-c1cccs1)/c1ccc(-c2ccccc2)cc1"
meas_value = 1.10

[[record]]
compound = "NC(=O)c1cnccn1 [PYRAZINAMIDE]"
meas_value = 1.10

[[record]]
compound = "C(=C\\c1cncnc1-c1ccco1)/c1ccc(-c2ccccc2)cc1"
meas_value = 1.10


So for Brc1cncnc1-c1ccc(-c2ccccc2)s1 , the logged log10(MIC) turned out to be 0.80

So for C(=C\c1cncnc1-c1ccc(-c2ccccc2)s1)/c1ccccc1 , the logged log10(MIC) turned out to be 1.10

So for C(=C\c1cncnc1-c1ccc(-c2ccccc2)s1)/c1ccc(-c2ccccc2)cc1 , the logged log10(MIC) turned out to be 1.10

So for NNC(=O)c1ccncc1 , the logged log10(MIC) turned out to be -1.00

So for c1csc(-c2ccc(-c3ccncn3)s2)c1 , the logged log10(MIC) turned out to be 1.10
